From: patent US20240279281A1

# target of assay: T1, interleukin-23 receptor (IL-23R), Q5VWK5
# T1 chain: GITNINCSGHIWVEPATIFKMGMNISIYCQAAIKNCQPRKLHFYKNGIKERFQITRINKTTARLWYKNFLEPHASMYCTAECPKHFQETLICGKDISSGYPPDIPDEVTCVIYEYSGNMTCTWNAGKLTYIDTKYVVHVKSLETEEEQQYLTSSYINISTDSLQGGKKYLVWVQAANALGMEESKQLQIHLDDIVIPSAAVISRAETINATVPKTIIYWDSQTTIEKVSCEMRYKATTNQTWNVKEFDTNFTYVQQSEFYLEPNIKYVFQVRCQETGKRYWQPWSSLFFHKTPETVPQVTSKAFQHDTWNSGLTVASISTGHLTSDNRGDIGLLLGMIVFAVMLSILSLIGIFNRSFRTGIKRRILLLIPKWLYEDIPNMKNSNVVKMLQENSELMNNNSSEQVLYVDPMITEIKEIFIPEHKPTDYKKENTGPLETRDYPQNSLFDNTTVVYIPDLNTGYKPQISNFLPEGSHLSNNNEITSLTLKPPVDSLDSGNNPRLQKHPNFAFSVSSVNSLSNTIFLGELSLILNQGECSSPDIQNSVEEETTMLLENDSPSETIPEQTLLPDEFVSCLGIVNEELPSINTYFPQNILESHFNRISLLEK
# experiment notes: cell-based or functional assay
Positions of bridges follow the written chain, without caps; N, C: chain ends. Non-standard residues stand in square brackets, D forms with d. No end group written: not given here. Trp(7-Me) = Cc1cccc2c(C[C@H](N)C(=O)O)c[nH]c12; 3Pal = N[C@@H](Cc1cccnc1)C(=O)O; Pen = CC(C)(S)[C@H](N)C(=O)O; lipid = not defined here; Thp = NC1(C(=O)O)CCOCC1; Sar = CNCC(=O)O
measured parameter: PBMC pSTAT3 IC50

Consider the worked cases shown below.
[Pen]NT[Trp(7-Me)]K(Ac)[Pen][2‑amino‑3‑(4-(2-aminoethoxy)phenyl)propanoic acid][2‑amino‑3‑(6-hydroxynaphthalen-2-yl)propanoic acid][Thp]K(Ac)N[3Pal][Sar]K(lipid) (disulfide 1-6 (inferred); ends not checked; also: K14: lipidated lysine) [SEQ ID NO: 277]
< 1 nM
R[Pen]NT[Trp(7-Me)]K(Ac)[Pen][2‑amino‑3‑(4-(2-aminoethoxy)phenyl)propanoic acid][2‑amino‑3‑(6-hydroxynaphthalen-2-yl)propanoic acid][Thp]K(Ac)N[3Pal][Sar]K (disulfide 2-7 (inferred); not fully specified (residue 15); ends not checked; also: K15: lipidated lysine, lipid not given here) [SEQ ID NO: 254]
< 1 nM

Turning now to a further record.
*Q* Output measured PBMC pSTAT3 IC50 for this item: K(lipid)[Pen]NT[Trp(7-Me)]K(Ac)[Pen][2‑amino‑3‑(4-(2-aminoethoxy)phenyl)propanoic acid][2‑amino‑3‑(6-hydroxynaphthalen-2-yl)propanoic acid][Thp]K(Ac)N[3Pal][Sar] (disulfide 2-7 (inferred); ends not checked; also: K1: lipidated lysine, lipid not given here) [SEQ ID NO: 164]
*A* < 1 nM
